System: SNB-75 CNS
experimental_details: NCI tumour cell line growth inhibition, 48 h
endpoint_label: GI50

These solved cases illustrate the format of a correct answer.
{"compound": "C=C(Cl)[C@@](Cl)(CBr)CC[C@@H](Br)C(C)(C)Cl", "GI50": "1.35 µM"}
{"compound": "COc1ccc(-c2cc(-c3ccccc3)nc(NCCNc3ccnc4cc(Cl)ccc34)n2)cc1", "GI50": "1.6 µM"}
{"compound": "COc1c(O)c2c3c(c1OC)-c1ccccc1CC3N(S(=O)(=O)c1ccc(C)cc1)CC2 (stereo unspecified)", "GI50": "0.933 µM"}
{"compound": "NC(N)=N/N=C/c1c(-c2ccncc2)nc2sc(Cl)cn12", "GI50": "4.89 µM"}
{"compound": "Cc1cc(Nc2ccc(Cl)cc2)nc(NCCCNc2ccnc3cc(Cl)ccc23)n1", "GI50": "1.33 µM"}

Provide only the value of recorded GI50 for c1cncc([O][Ge]([O]c2cccnc2)([O]c2cccnc2)[O]c2cccnc2)c1
> 100 µM

Give recorded GI50. Cc1ccnc(Nc2ccc([N+](=O)[O-])c(NCCN3CCOCC3)n2)c1
0.00243 µM

For C#CC#CC#CC#CC#CC#CC#CC#CC[C@@H]1OC[C@@H](COC(=O)O[C@@H](C(=O)O[C@H]2C[C@@]3(O)[C@@H](OC(=O)c4ccccc4)[C@@H]4[C@]5(OC(C)=O)CO[C@@H]5C[C@H](O)[C@@]4(C)C(=O)[C@H](OC(C)=O)C(=C2C)C3(C)C)[C@@H](NC(=O)c2ccccc2)c2ccccc2)O1 , write its GI50.
0.0599 µM

Write down GI50 measured for item COC(=O)[C@H](Cc1cn(C)cn1)NC(=O)[C@@H](NC(=O)Nc1cc(C(F)(F)F)cc(C(F)(F)F)c1)C(C)C
6.44 µM

Quick one: give measured GI50 for N#CCC1(n2cc(-c3ncnc4[nH]ccc34)cn2)CN(C2CCN(C(=O)c3ccnc(C(F)(F)F)c3F)CC2)C1
25.7 µM

Annotate the compound COc1ccc(OCC(O)CN2CCN(c3ccc(Cl)cc3)CC2)cc1 (stereo unspecified) with its measured GI50.
17 µM

---

Tested on: HCT-116 colon
experimental_details: NCI tumour cell line growth inhibition, 48 h; in the data active = GI50 below about 0.43 µM; inactive = the rest
Outcome field: choose from active, inactive

{"molecule": "NC(=O)c1ncn(C2OC(CO)C(O)C2O)c1N (centres undefined)", "class": "inactive"}
{"molecule": "COc1ccc(/C=C\\c2cc(OC)c(OC)c(OC)c2)c(NS(=O)(=O)c2ccc(C(C)(C)C)cc2)c1O", "class": "active"}
{"molecule": "CC1OC(OC2C(O[C@H]3CC[C@@]4(C)C(=CC[C@H]5[C@@H]6C[C@@H]7O[C@]8(CC[C@@H](C)CO8)[C@@H](C)[C@@H]7[C@@]6(C)CC[C@@H]54)C3)OC(CO)C(OC3OC(CO)C(O)C3O)C2O)C(O)C(O)C1O (some centres undefined)", "class": "inactive"}
{"molecule": "OCCCCC#Cc1ccccc1C#Cc1ccc(C(F)(F)F)cc1", "class": "inactive"}

Please indicate how the test categorized COc1ccc(/C=C/C(C)=N/OCC(=O)Nc2ccc(Cl)cc2)cc1 .
inactive

Please share the test call associated with C=C1CC/C=C(\C)CC[C@H](C(=C)C)[C@@H](O)/C=C(/CO)CCC1O (some centres undefined) .
inactive

# fetch the recorded call for O=NN(CCCl)C(=O)NC1CCCCC1 here
inactive

Look up the recorded call for Cn1ccnc1C(=O)/C=C/c1ccc(C(=O)Nc2c(F)c(F)c(F)c(F)c2F)cc1 in this test.
inactive

Can you look up the reported call for Oc1ccccc1C=Nc1nc(OCc2ccccc2)nc2[nH]ncc12 for me?
inactive
